system: RAW-Dual (murine macrophage reporter line); experiment: NF-kB reporter (SEAP) activity fold change vs agonist alone; higher = enhanced NF-kB activity; conditions: modulator concentration 10 µM; agonist: LPS 0.1 ug/mL
Assay Metric: NF-kB reporter

Input O=C(CCN1C(=O)c2cccc([N+](=O)[O-])c2C1=O)Nc1ccc(Cl)cc1 . Output NF-kB reporter: 1.02

NF-kB reporter in this record for O=C(C=Cc1ccccc1)NC(NC(=S)Nc1cccc(O)c1)C(Cl)(Cl)Cl (stereo not drawn) : 0.803

The recorded NF-kB reporter for OCC1OC(Oc2ccc(O)cc2)C(O)C(O)C1O (stereo not drawn) is 0.965

So, CC[C@@H]1C(=O)N(C)c2cnc(Nc3ccc(C(=O)N[C@H]4CC[C@H](N5CCN(CC6CC6)CC5)CC4)cc3OC)nc2N1C(C)C ? Its NF-kB reporter was 1.22

NF-kB reporter for CCOc1ccc2nc(NC(=O)c3ccc(Br)cc3F)sc2c1 is 1.1

For record COc1ccc(Cl)cc1C(=O)N1CCC(S(=O)(=O)c2nncn2C)CC1 the listed NF-kB reporter is 1.04

According to the records, this compound COc1ccc2ccccc2c1C=C1SC(=S)N(CC(=O)O)C1=O displays NF-kB reporter of 1

Lab note: measured NF-kB reporter of Cc1ccc(Sc2cc(Sc3ccc(C)cc3)c3noc4c3c2C(=O)c2ccccc2-4)cc1 was 1.03

Reported NF-kB reporter of O=S(=O)(NCCOCc1ccccc1)c1ccccc1 : 1.05

The measured NF-kB reporter associated with CCOCC(=O)Nc1ccc(N2CCCCC2=O)c(C)c1 reads 0.79

Summary for this compound, Cc1ncn(CCNC(=O)Nc2ccc(OC(F)(F)F)cc2)c(=O)c1C : NF-kB reporter is 1.08

Entry under test: COc1ccc(Br)c(C(=O)N2CCCC2CS(=O)(=O)c2ccccc2)c1 (stereo not drawn) . Its NF-kB reporter was 1.08

For Nc1nc(=O)[nH]cc1F the compound record lists NF-kB reporter as 1.07

# compound Cl.OC(CCN1CCCCC1)(c1ccccc1)C1CCCCC1 (stereo not drawn) ; its NF-kB reporter = 1.01

response.value for O=C(O)CCCN1CCC(O[C@@H](c2ccc(Cl)cc2)c2ccccn2)CC1.O=S(=O)(O)c1ccccc1 (field: NF-kB reporter) = 1.24

Noted for CCCCSc1nnc2c(n1)OC(c1cccc(C)n1)Nc1ccc(Br)cc1-2 (stereo not drawn) : its NF-kB reporter reads 1.05

Memo: O=C(NCCN1CCOCC1)c1ccccc1Br , reported NF-kB reporter: 1.13

The reported value for Cc1oncc1C(=O)NCCn1nc(C(F)(F)F)cc1C1CC1 in terms of NF-kB reporter is 1.05

Entry O=S(=O)(Cc1ccccc1)c1nc2ccccc2n1Cc1ccc(Cl)cc1 ; NF-kB reporter = 1.1

Please fill in: NF-kB reporter reported for COc1ccc(CNC(=O)c2cnc3n(c2=O)CCS3)cc1 = 1.04

NF-kB reporter reported for this compound COc1ccc(Cl)cc1C(=O)NCCc1ccc(S(=O)(=O)NC(=O)NC2CCCCC2)cc1 : 0.932

The compound listed as COc1cccc(-c2csc(NC(=O)C3CC3)n2)c1 shows NF-kB reporter equal to 1.44

Quick note, NF-kB reporter for COC(C)(CNC(=O)c1cc2ccccc2[nH]1)c1ccccc1F (stereo not drawn) landed at 0.96

Data origin, for the record: the supplement of paper PMC10646978
